Sourced from PubChem BioAssay AID1345085

System: Es-2
Run Description: Confirmatory qHTS for gynecologic anti-cancer compounds from libraries of approved drugs and bioactive compounds; note: nearly all actives have a fitted effect of over 55% in size
Test Context: gynecologic cancer cell panel viability, ATPlite luminescence, 48 h; series mostly up to 57.6 µM
Results filed as inconclusive are left out. Activity calls are given as the source filed them. Calls come from the whole dose curve; as a rule, active = well fitted cell-killing curve with a large enough effect; inconclusive = small, poorly fitted or top-dose-only effect, or effect the other way; inactive = no such curve, though single readings can be large or run the other way.
Classes used: T = active, F = inactive

{"columns": ["Compound", "Group Label"],
 "data": [
  ["Nc1ncnc2c1ncn2[C@@H]1O[C@H](CO)C[C@H]1O", "F"],
  ["Cc1cc(C(C)Nc2ccccc2C(=O)O)c2nc(N3CCOCC3)cc(=O)n2c1 (stereo not given)", "F"],
  ["CC(C)Oc1ccc(C(=O)NC(CNC(=O)CN(C)C)Cc2ccc(-c3cn4cccc(C(C)O)c4n3)cc2)cc1Cl (stereo not given)", "T"],
  ["Cc1nc(N)ncc1-c1nc(N2CCOCC2)c2sc(C(C)(C)O)cc2n1", "F"],
  ["Cc1csc(NC(=O)c2sc3nc4c(c(C(F)(F)F)c3c2N)CCC4)n1", "T"]
]}

---

System: Es-2
Run Description: Confirmatory qHTS for gynecologic anti-cancer compounds from libraries of approved drugs and bioactive compounds; note: nearly all actives have a fitted effect of over 55% in size; note: potency is the fitted concentration of half-maximal effect
Test Context: gynecologic cancer cell panel viability, ATPlite luminescence, 48 h; series mostly up to 57.6 µM
Results filed as inconclusive are left out. Active and inactive are the calls of the source. Calls follow the shape of the dose curve; as a rule, active = well fitted cell-killing curve with a large enough effect; inconclusive = small, poorly fitted or top-dose-only effect, or effect the other way; inactive = no such curve, though single readings can be large or run the other way.

{"columns": ["Smiles Input", "Potency"],
 "data": [
  ["Nc1ncn([C@@H]2O[C@H](CO)[C@@H](O)[C@H]2O)c(=O)n1", "12.2 µM (active)"],
  ["Cc1cc(C2CCCCC2)n(O)c(=O)c1", "9.94 µM (active)"],
  ["COc1cc(Nc2c(C#N)cnc3cc(OCCCN4CCN(C)CC4)c(OC)cc23)c(Cl)cc1Cl", "21.7 µM (active)"]
]}
